# Tested on: 786-0 renal
# protocol_description: NCI-60 one-dose screen, 48 h
# condition: 10 µM unless noted
# Experimental: Cells are grown in 96 well plates and exposed to the test compound for 48 hours. Compounds are tested at a single concentration, which is 10^-5 M for most compounds. The reported endpoint is percent growth (GI% or GIPRCNT), where numbers from 0 - 100% represent growth inhibition, and numbers from -100% - 0 represent cell death. For example, a value of 40 represents 60% growth inhibition. A value of 0 means no net growth occurred over the course of the experiment. […]
The panel holds about 83,000 compounds, 20% with a hit somewhere; the sample as a whole holds those more often. Active and inactive are the calls of the source. Rule for the calls: active = growth percent below 10; inactive = the rest.
I would appreciate it if you answered using one of these outcomes: active, inactive

These recorded examples may help you get a feel for the data.
>>> print(df.to_string())
                                   compound  assigned_label
0  O=C(NCCNc1nccc(-c2c(-c3cccc(O)c3)nc3sccn23)n1)Nc1cccc(C(F)(F)F)c1        inactive
1  O=C(Nc1ccc(F)cc1)Nc1ccc(Br)c(C(F)(F)F)c1        inactive
2  COc1ccc(Cn2cc(COc3ccc4c5ccnc(C)c5n(CCCc5ccccc5)c4c3)nn2)cc1        inactive

// query Query: recorded result category for `Nc1nccc2c1ccn2-c1cccc(NC(=O)c2ccc(N3CCOCC3)c(C(F)(F)F)c2)c1` in this test
// result active

// query Queued: CCCCCCCCN(CCCCCCCC)CC(O)c1cc(-c2ccccc2)nc2ccc(OC)cc12 (stereo not drawn)
// result inactive

// query Queued: `CC1(C)N=C(N)N=C(N)N1c1cccc(CCCCc2ccccc2)c1`
// result active

// query Queued: `COc1cc(-c2nc3ccccc3s2)ccc1OCc1nc2n(n1)S(=O)(=O)c1ccccc1N2C`
// result inactive

// query Queued: `O=S1(=O)N(CCNc2nccc(-c3c(-c4cccc(O)c4)nc4sccn34)n2)CCN1Cc1ccccc1`
// result inactive

// query Queued: `CC1(C)N=C(N)N=C(N)N1c1ccc(F)c(C(F)(F)F)c1`
// result active

// query Queued: `C[C@]12CC[C@@H]3c4ccc(O)c(N)c4CC[C@H]3[C@@H]1CC[C@@H]2O`
// result inactive

// query Queued: `COc1cc(C(=O)NNC(=O)c2ccccc2C(=O)O)cc(OC)c1OC`
// result inactive

// query Queued: `NS(=O)(=O)c1ccc(Nc2nc(O)c(/C=C3\C=Nc4ccccc43)s2)cc1`
// result inactive

// query Queued: CC(NCCC(c1ccccc1)c1ccccc1)c1ccccc1 (stereo not drawn)
// result inactive

---

Please go through the items and note down their growth.
# Tested on: RPMI-8226 leukemia
# protocol_description: NCI-60 one-dose screen, 48 h (100 = growth as untreated, 0 = no growth, -100 = all killed)
# condition: 10 µM unless noted
About 83,000 compounds went through this panel and 20% of them were active in at least one assay; those are over-represented in the sample as a whole.
Numbers only, in %.

See these solved cases before continuing.
In [3]: df
Out[3]:
                                   molecule  observation_type  result
0  C#CC(=O)/C=C/CCCCCCC#CC(=O)CCC(=O)C#CCCCCCC/C=C/C(=O)C#C            growth   -31.6
1  O=C(NNC(=O)c1ccc([N+](=O)[O-])cc1)c1ccc([N+](=O)[O-])cc1            growth    95.5

Switching to the query record.
// query Need growth, item CCC1CN2C(=N1)c1ccccc1-c1cc(Cl)ccc12 (stereo not drawn)
// result -9.43
